Study System: Thermosynechococcus vulcanus NIES-2134 protoporphyrinogen IX oxidase CyPPO18 (SEQ ID NO: 3) variant A167L (MBP fusion) (Thermosynechococcus vestitus, UniProt Q8DLV2, A167L)
Sequence (Q8DLV2 entry or part of it A167L): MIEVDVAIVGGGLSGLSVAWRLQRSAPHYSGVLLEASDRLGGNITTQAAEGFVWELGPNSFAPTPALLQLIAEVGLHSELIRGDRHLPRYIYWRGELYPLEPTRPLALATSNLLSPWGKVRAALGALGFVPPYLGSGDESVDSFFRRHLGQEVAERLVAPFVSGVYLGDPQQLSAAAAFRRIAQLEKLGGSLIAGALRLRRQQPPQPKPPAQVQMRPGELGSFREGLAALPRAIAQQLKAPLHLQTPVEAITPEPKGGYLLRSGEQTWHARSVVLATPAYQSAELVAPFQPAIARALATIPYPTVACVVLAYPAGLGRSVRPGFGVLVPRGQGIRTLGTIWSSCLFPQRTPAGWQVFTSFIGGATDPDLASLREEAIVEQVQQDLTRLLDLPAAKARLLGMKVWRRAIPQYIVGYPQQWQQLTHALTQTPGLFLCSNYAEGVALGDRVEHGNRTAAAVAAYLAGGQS
Method Description: PPO enzyme inhibition assay (IC50 for herbicides), CyPPO18 A167L fused to MBP
Measurement Setup: 50 μM protoporphyrinogen IX, pH 7.5, room temperature, 30 min
Listed compounds paired with reported pIC50
pIC50 (log units): -log10 of the concentration in mol/L.

Input Cc1nn(-c2cc(CC(Cl)C(=O)O)c(Cl)cc2F)c(=O)n1C(F)F (centres unmarked) . Output pIC50: 5.40

Alright, here's another compound for you.
response.value for CCOc1cc(Oc2ccc(C(F)(F)F)cc2Cl)ccc1[N+](=O)[O-] (field: pIC50) = 5.55
